Data provenance is patent US20260242735A1.

# targetOrTestSystem: human CD33 N209A (human, UniProt P20138 18-364)
# Sequence (P20138 18-364 N209A limits assumed): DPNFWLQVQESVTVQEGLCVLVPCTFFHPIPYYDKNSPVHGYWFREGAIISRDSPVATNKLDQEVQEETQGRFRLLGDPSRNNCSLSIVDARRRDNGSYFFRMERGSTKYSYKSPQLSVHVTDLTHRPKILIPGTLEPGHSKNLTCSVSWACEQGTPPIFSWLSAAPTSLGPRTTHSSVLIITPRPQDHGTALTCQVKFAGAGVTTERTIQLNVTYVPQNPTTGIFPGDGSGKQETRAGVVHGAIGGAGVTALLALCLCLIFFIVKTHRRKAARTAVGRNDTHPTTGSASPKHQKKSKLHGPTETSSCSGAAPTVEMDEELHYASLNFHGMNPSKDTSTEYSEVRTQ
# assayName: alanine scan, flow cytometry, HEK293-T;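 note: antibody binding to each alanine-substituted CD33 mutant expressed transiently in HEK293-T, read as fluorescence minus background, mean of duplicates, relative to wild-type CD33 set as 100%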

- binder: "Refmab #1 (antibody, V domains shown, In the alanine scan antibodies were used as IgG or Fab; also called hP67.6) VH: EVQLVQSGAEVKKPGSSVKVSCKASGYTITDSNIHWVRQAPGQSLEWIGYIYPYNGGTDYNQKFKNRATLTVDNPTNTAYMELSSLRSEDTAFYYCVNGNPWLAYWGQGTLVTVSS VL: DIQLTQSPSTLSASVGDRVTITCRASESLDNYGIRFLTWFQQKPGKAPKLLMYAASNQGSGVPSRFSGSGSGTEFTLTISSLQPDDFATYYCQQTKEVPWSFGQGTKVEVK"
  Mean % WT Binding / %: 92.1
- binder: "Refmab #4 (antibody, V domains shown, In the alanine scan antibodies were used as IgG or Fab) VH: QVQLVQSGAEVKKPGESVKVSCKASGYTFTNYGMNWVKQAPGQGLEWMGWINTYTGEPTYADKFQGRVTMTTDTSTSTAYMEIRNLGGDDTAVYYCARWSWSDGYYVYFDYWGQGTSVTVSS VL: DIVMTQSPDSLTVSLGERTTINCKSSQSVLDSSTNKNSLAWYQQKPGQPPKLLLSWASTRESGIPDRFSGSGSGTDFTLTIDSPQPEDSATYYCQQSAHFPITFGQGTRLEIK"
  Mean % WT Binding / %: 88.1
- binder: "Refmab #3 (antibody, V domains shown, In the alanine scan antibodies were used as IgG or Fab) VH: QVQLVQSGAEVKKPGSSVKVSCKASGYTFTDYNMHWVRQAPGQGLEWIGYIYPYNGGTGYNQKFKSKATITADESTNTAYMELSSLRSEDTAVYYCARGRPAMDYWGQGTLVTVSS VL: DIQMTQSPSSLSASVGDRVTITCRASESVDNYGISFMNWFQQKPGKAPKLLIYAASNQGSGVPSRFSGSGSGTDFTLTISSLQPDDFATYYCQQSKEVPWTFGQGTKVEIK"
  Mean % WT Binding / %: 91.7
- binder: "Refmab #2 (antibody, V domains shown, In the alanine scan antibodies were used as IgG or Fab) VH: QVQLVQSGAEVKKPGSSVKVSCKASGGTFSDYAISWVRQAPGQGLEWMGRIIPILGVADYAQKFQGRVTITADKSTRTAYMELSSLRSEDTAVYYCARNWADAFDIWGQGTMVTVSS VL: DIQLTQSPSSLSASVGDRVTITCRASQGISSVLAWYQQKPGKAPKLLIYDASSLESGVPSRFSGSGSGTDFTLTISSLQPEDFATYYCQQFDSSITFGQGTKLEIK"
  Mean % WT Binding / %: 104
